OBSERVED PROPERTY: IC50 (nM)
Report the figure in nM without appending any unit label.

Request body: readout IC50, system EGFR (Homo sapiens, UniProt P00533), query CCOc1cc2ncc(C#N)c(Nc3ccc(OCc4ccccn4)c(Cl)c3)c2cc1NC(=O)CCCN(C)C [mBNB885] . Return the value.
1.42

====

# PROTOCOL DESCRIPTION: Pharmacokinetics in mice
# Assay type: in vivo
# EXPERIMENTAL CONDITIONS: female, CD1, mouse, plasma, po, 20 mg/kg
OBSERVED PROPERTY: MRT (h)
Report the figure in h without appending any unit label.

If you can, please state the reported MRT value of `CCOc1cc2ncc(C#N)c(Nc3ccc(OCc4ccccn4)c(Cl)c3)c2cc1NC(=O)/C=C/CN(C)C` .
5.4

Origin of values: paper PMC10962727
